Listed compounds paired with reported viability, T/C
- Tested on: 857933-349-R-J2-PDC complex spheroids, viability
- test_details: Anticancer human tumor 857933-349-R-J2-PDC patient-derived colon adenocarcinoma cell line growth inhibition [GQUAD]
- assay_setup: second compound 0.0316 µM; first compound 0.316 µM; stronger effect = lower value
Only the number, expressed in %, is required.

Recorded viability, T/C, per entry:
INSERT INTO results (compound, tested_target, measurement_type, value_reported) VALUES
  ('COc1cc(C2c3cc4c(cc3C(OC3OC5COC(C)OC5C(O)C3O)C3COC(=O)C23)OCO4)cc(OC)c1O (stereo unspecified) + Cc1[nH]c2ccc(F)cc2c1-c1nc2c3cccnc3c3ncccc3c2[nH]1', '857933-349-R-J2-PDC complex spheroids, viability', 'viability, T/C', 58),
  ('CC1COCCN1c1cc(C2(O)CC3CCC(C2)O3)c2cnn(-c3ccn[nH]3)c2n1 (stereo unspecified) + Cc1cnc(CNC(=O)c2c(=O)c3ccc(N4CCCN(C)CC4)nc3n3c2sc2ccccc23)cn1', '857933-349-R-J2-PDC complex spheroids, viability', 'viability, T/C', 36.8);

viability, T/C reported for this compound O=c1[nH]cc(F)c(=O)[nH]1 + Cc1[nH]c2ccc(F)cc2c1-c1nc2c3cccnc3c3ncccc3c2[nH]1 : 99

viability, T/C reported for this compound COc1cc(C2c3cc4c(cc3C(OC3OC5COC(C)OC5C(O)C3O)C3COC(=O)C23)OCO4)cc(OC)c1O (stereo unspecified) + Cc1cnc(CNC(=O)c2c(=O)c3ccc(N4CCCN(C)CC4)nc3n3c2sc2ccccc23)cn1 : 43.6

viability, T/C reported for this compound Nc1ccn(C2OC(CO)C(O)C2(F)F)c(=O)n1 (stereo unspecified) + CN(C)c1ccc(Nc2c3ccc(NC(=O)CCN4CCCC4)cc3nc3cc(NC(=O)CCN4CCCC4)ccc23)cc1 : 56.7

viability, T/C reported for this compound CC1COCCN1c1cc(-c2ccnn2C)c2ccnc(-c3ccn[nH]3)c2n1 (stereo unspecified) + Cc1cnc(CNC(=O)c2c(=O)c3ccc(N4CCCN(C)CC4)nc3n3c2sc2ccccc23)cn1 : 33.5

====

Listed compounds paired with reported viability, T/C
- Tested on: 857933-349-R-J2-PDC complex spheroids, viability
- test_details: Anticancer human tumor 857933-349-R-J2-PDC cell line growth inhibition [GQUAD];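 note: spheroids exposed to compounds for one week before readout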;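 for viability, T/C: percent viability relative to vehicle DMSO wells taken as 100%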
- assay_setup: second compound 0.0316 µM; first compound 0.0316 µM; stronger effect = lower value

Recorded viability, T/C, per entry:
INSERT INTO results (compound, tested_target, measurement_type, value_reported) VALUES
  ('COc1cc(C2c3cc4c(cc3C(OC3OC5COC(C)OC5C(O)C3O)C3COC(=O)C23)OCO4)cc(OC)c1O (stereo not given) + Cc1[nH]c2ccc(F)cc2c1-c1nc2c3cccnc3c3ncccc3c2[nH]1', '857933-349-R-J2-PDC complex spheroids, viability', 'viability, T/C', '84.8%'),
  ('Cc1cccc(N(C)C(=O)C2C(O)CCN2c2nc(C)cc(C(F)(F)F)c2C#N)c1 (stereo not given) + Cc1[nH]c2ccc(F)cc2c1-c1nc2c3cccnc3c3ncccc3c2[nH]1', '857933-349-R-J2-PDC complex spheroids, viability', 'viability, T/C', '101%'),
  ('C=CC(=O)N1CCN(c2nc(=O)n(-c3c(C)ccnc3C(C)C)c3nc(-c4c(O)cccc4F)c(F)cc23)C(C)C1 (stereo not given) + CN(C)c1ccc(Nc2c3ccc(NC(=O)CCN4CCCC4)cc3nc3cc(NC(=O)CCN4CCCC4)ccc23)cc1', '857933-349-R-J2-PDC complex spheroids, viability', 'viability, T/C', '114%');

viability, T/C reported for this compound CC1COCCN1c1cc(C2(S(C)(=N)=O)CC2)nc(-c2ccnc3[nH]ccc23)n1 (stereo not given) + CN(C)c1ccc(Nc2c3ccc(NC(=O)CCN4CCCC4)cc3nc3cc(NC(=O)CCN4CCCC4)ccc23)cc1 : 104%

viability, T/C reported for this compound CC(C)(O)C1CCC(Nc2ccc3ncc(-c4cccc(C(F)(F)F)c4)n3n2)CC1 (stereo not given) + Cc1cnc(CNC(=O)c2c(=O)c3ccc(N4CCCN(C)CC4)nc3n3c2sc2ccccc23)cn1 : 86.5%

====

- System: 857933-349-R-J2-PDC complex spheroids, viability
- test_details: Anticancer human tumor 857933-349-R-J2-PDC cell line growth inhibition [GQUAD];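 note: spheroids exposed to compounds for one week before readout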;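 for viability, T/C: percent viability relative to vehicle DMSO wells taken as 100%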
- assay_setup: second compound 0.316 µM; first compound 0.316 µM; stronger effect = lower value
- Text: DNA G-quadruplex Stabilizer Agents in Combinations in Complex Spheroids A high-throughput screen of multi-cell type tumor spheroids was designed to identify active combinations of DNA G-quadruplex stabilizer agents and targeted small molecules. […] Compounds. […] If the clinical Cmax for an agent had not been determined, the highest concentration tested was 10 microM. […]
measurement_type: viability, T/C (%)
Only the number, expressed in %, is required.

INSERT INTO results (compound, measurement_type, value_reported) VALUES
  ('C#Cc1c(F)ccc2cc(O)cc(-c3ncc4c(N5CC6CCC(C5)N6)nc(OCC56CCCN5CC(F)C6)nc4c3F)c12 (stereo not drawn) + CN(C)c1ccc(Nc2c3ccc(NC(=O)CCN4CCCC4)cc3nc3cc(NC(=O)CCN4CCCC4)ccc23)cc1', 'viability, T/C', 95.5),
  ('Cc1[nH]c2ccccc2c1CCNCc1ccc(/C=C/C(=O)NO)cc1 + Cc1cnc(CNC(=O)c2c(=O)c3ccc(N4CCCN(C)CC4)nc3n3c2sc2ccccc23)cn1', 'viability, T/C', 3.64);

viability, T/C reported for this compound Cc1cccc(N(C)C(=O)C2C(O)CCN2c2nc(C)cc(C(F)(F)F)c2C#N)c1 (stereo not drawn) + Cc1[nH]c2ccc(F)cc2c1-c1nc2c3cccnc3c3ncccc3c2[nH]1 : 106

====

- Tested on: 857933-349-R-J2-PDC complex spheroids, viability
- test_details: Anticancer human tumor 857933-349-R-J2-PDC cell line growth inhibition [GQUAD];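 note: spheroids exposed to compounds for one week before readout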
- assay_setup: curve of first compound; second compound 0.316 µM
pIC50: −log10 of the molar value.
Listed compounds paired with reported pIC50

Recorded pIC50, per entry:
INSERT INTO assay_data (compound, value_reported) VALUES
  ('O=C(NO)c1cnc(N2CCN(S(=O)(=O)c3ccc4ccccc4c3)CC2)nc1 + Cc1cnc(CNC(=O)c2c(=O)c3ccc(N4CCCN(C)CC4)nc3n3c2sc2ccccc23)cn1', '> 7.50'),
  ('C#Cc1c(F)ccc2cc(O)cc(-c3ncc4c(N5CC6CCC(C5)N6)nc(OCC56CCCN5CC(F)C6)nc4c3F)c12 (centres undefined) + CN(C)c1ccc(Nc2c3ccc(NC(=O)CCN4CCCC4)cc3nc3cc(NC(=O)CCN4CCCC4)ccc23)cc1', '< 5.00'),
  ('Cc1cccc(N(C)C(=O)C2C(O)CCN2c2nc(C)cc(C(F)(F)F)c2C#N)c1 (centres undefined) + Cc1[nH]c2ccc(F)cc2c1-c1nc2c3cccnc3c3ncccc3c2[nH]1', '< 5.00');

pIC50 reported for this compound CCc1c2c(nc3ccc(O)cc13)-c1cc3c(c(=O)n1C2)COC(=O)[C@]3(O)CC + CN(C)c1ccc(Nc2c3ccc(NC(=O)CCN4CCCC4)cc3nc3cc(NC(=O)CCN4CCCC4)ccc23)cc1 : 7.82

====

- System: 857933-349-R-J2-PDC complex spheroids, viability
- test_details: Anticancer human tumor 857933-349-R-J2-PDC cell line growth inhibition [GQUAD];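 note: spheroids exposed to compounds for one week before readout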;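 for viability, T/C: percent viability relative to vehicle DMSO wells taken as 100%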
- assay_setup: second compound 0.0316 µM; first compound 0.316 µM; stronger effect = lower value
Listed compounds paired with reported viability, T/C

Recorded viability, T/C, per entry:
INSERT INTO results (compound, tested_target, value_reported) VALUES
  ('COc1cccc2c1C(=O)c1c(O)c3c(c(O)c1C2=O)CC(O)(C(=O)CO)CC3OC1CC(N)C(O)C(C)O1 (stereo unspecified) + CN(C)c1ccc(Nc2c3ccc(NC(=O)CCN4CCCC4)cc3nc3cc(NC(=O)CCN4CCCC4)ccc23)cc1', '857933-349-R-J2-PDC complex spheroids, viability', '76.7%'),
  ('CC(=O)O[C@H]1C(=O)[C@@]2(C)[C@H]([C@H](OC(=O)c3ccccc3)[C@]3(O)C[C@H](OC(=O)[C@H](O)[C@@H](NC(=O)c4ccccc4)c4ccccc4)C(C)=C1C3(C)C)[C@]1(OC(C)=O)CO[C@@H]1C[C@@H]2O + Cc1cnc(CNC(=O)c2c(=O)c3ccc(N4CCCN(C)CC4)nc3n3c2sc2ccccc23)cn1', '857933-349-R-J2-PDC complex spheroids, viability', '8.87%'),
  ('Cc1[nH]c2ccccc2c1CCNCc1ccc(/C=C/C(=O)NO)cc1 + Cc1[nH]c2ccc(F)cc2c1-c1nc2c3cccnc3c3ncccc3c2[nH]1', '857933-349-R-J2-PDC complex spheroids, viability', '59.1%'),
  ('CC1COCCN1c1cc(C2(S(C)(=N)=O)CC2)nc(-c2ccnc3[nH]ccc23)n1 (stereo unspecified) + Cc1[nH]c2ccc(F)cc2c1-c1nc2c3cccnc3c3ncccc3c2[nH]1', '857933-349-R-J2-PDC complex spheroids, viability', '88.5%');

viability, T/C reported for this compound COc1ccc([C@@H](O)c2cc(-c3ncnc4cc(N5CCOCC5)ccc34)c(F)cc2Cl)nn1 + Cc1[nH]c2ccc(F)cc2c1-c1nc2c3cccnc3c3ncccc3c2[nH]1 : 99.8%

viability, T/C reported for this compound Nc1ccn(C2OC(CO)C(O)C2(F)F)c(=O)n1 (stereo unspecified) + Cc1[nH]c2ccc(F)cc2c1-c1nc2c3cccnc3c3ncccc3c2[nH]1 : 53%
